Source of measurements: ChEMBL document CHEMBL1130122

- Assayed System: Cytosolic phospholipase A2 (Bos taurus)
- Sequence (A4IFJ5 whole entry): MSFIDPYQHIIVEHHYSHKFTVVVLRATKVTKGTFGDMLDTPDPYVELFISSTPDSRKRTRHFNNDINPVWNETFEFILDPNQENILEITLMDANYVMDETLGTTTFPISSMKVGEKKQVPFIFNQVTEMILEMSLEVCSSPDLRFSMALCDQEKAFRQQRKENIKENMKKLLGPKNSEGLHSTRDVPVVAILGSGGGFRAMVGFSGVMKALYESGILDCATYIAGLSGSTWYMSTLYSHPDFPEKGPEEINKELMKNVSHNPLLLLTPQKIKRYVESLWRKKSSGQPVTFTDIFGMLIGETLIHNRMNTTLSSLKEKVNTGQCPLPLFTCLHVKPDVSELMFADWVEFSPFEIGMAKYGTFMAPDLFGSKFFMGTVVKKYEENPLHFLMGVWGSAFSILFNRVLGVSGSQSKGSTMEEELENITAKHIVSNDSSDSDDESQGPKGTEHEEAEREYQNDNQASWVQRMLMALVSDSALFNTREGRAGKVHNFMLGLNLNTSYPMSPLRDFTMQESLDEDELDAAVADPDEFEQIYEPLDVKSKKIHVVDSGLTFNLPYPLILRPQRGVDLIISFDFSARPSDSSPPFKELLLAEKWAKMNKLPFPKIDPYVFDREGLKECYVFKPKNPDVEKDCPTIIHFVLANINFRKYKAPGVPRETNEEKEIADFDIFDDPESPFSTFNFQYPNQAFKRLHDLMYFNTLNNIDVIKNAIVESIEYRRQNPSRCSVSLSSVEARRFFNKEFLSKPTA
- Assay Explanation: Inhibitory activity against cPLA2 (cytosolic Phospholipase A2) by measuring the calcium ionophore A-23,187-induced arachidonic acid release from bovine platelets
- Type: functional
pIC50: −log10 of the molar value.

Line Notation	Value Comparator	pIC50
CCCCCCCCCCCC(=O)c1c(C(=O)O)n(CC(=O)O)c2ccccc12	<	4.48
CCCCCCCCCC(=O)c1c(C(=O)O)n(C)c2ccccc12	=	4.74
CCCCCCCCCCCC(=O)c1c(C(=O)O)n(C)c2ccc(O)cc12	=	5.00
CCCCCCCCCCCC(=O)c1c(C(=O)O)n(C)c2ccc(Cl)cc12	=	5.10
CCCCCCCCCCCCCCCCCC(=O)c1c(C(=O)O)n(C)c2ccccc12	=	5.10
CCCCCCCCCCCC(=O)c1c(C(=O)O)n(Cc2cccc(/C=C/C(=O)O)c2)c2ccccc12	=	5.28
CCCCCCCCCCCCCCCCCC(=O)c1c(C(=O)O)n(CCCCCC)c2ccccc12	=	5.05
CCCCCCCCCCOc1ccccc1CC(=O)c1c(C(=O)O)n(C)c2ccccc12	=	5.15
